Record form. Attribute: area over the GR curve. Fill in for each entry.
Tested on: HCC70
assay: area over the GR curve, 72 h; higher = more effect
Numbers only, in GR.

Record excerpt, results attached:
compound	observed_value
O=C(CCCCCCC(=O)Nc1ccccc1)NO [Vorinostat] (max 10 µM)	0.38
CC1(N)CCN(c2cnc(-c3cccc(Cl)c3Cl)c(N)n2)CC1 [SHP099] (max 10 µM)	0.074
CC(=O)c1c(C)c2cnc(Nc3ccc(N4CCNCC4)cn3)nc2n(C2CCCC2)c1=O (max 3.162 µM)	-0.0552
Nc1cc(C(F)(F)F)c(-c2cc(N3CCOCC3)nc(N3CCOCC3)n2)cn1 [Buparlisib/NVP-BKM120] (max 10 µM)	0.435
O=C1NC(=O)[C@@H](c2cn3c4c(cccc24)CCC3)[C@@H]1c1c[nH]c2ccccc12 [Tivantinib/ARQ197] (max 10 µM)	0.474
Nc1ccc(-c2ccc3ncc4ccc(=O)n(-c5cccc(C(F)(F)F)c5)c4c3c2)cn1 [Torin2] (max 1 µM)	0.645
CCOc1cc2ncc(C#N)c(Nc3ccc(OCc4ccccn4)c(Cl)c3)c2cc1NC(=O)/C=C/CN(C)C [Neratinib/HKI272] (max 3.162 µM)	0.317
CC[C@@H]1C(=O)N(C)c2cnc(Nc3ccc(C(=O)N[C@H]4CC[C@H](N5CCN(CC6CC6)CC5)CC4)cc3OC)nc2N1C(C)C [Volasertib/BI6727] (max 1 µM)	0.579

Here is the next item to consider.
[Q] Endpoint output: area over the GR curve of `COc1ccc2c(c1)[C@]1(C[C@H]1c1ccc3c(/C=C/c4ccc(CN5C[C@@H](C)O[C@@H](C)C5)cc4)n[nH]c3c1)C(=O)N2` . Value?
[A] 1.11

----------
Tested on: SUM185PE
assay: area over the GR curve, 72 h; higher = more effect;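 note: Dye Drop or Deep Dye Drop imaging of viable cells in 384-well plates (Hoechst nuclei, LIVE/DEAD dye), nine half-log doses, GR normalized to DMSO controls and time-zero plates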
Record form. Attribute: area over the GR curve. Fill in for each entry.

Record excerpt, results attached:
compound	observable	observed_value
CC(C)NC[C@@H](C(=O)N1CCN(c2ncnc3c2[C@H](C)C[C@H]3O)CC1)c1ccc(Cl)cc1 [Ipatasertib/GDC0068] (max 10 µM)	area over the GR curve	0.155 GR
CN1CCN(CCOc2cc(OC3CCOCC3)c3c(Nc4c(Cl)ccc5c4OCO5)ncnc3c2)CC1 [Saracatinib/AZD0530] (max 10 µM)	area over the GR curve	0.279 GR
CNc1nc(-c2ccc3c(N)n[nH]c3c2)cc(N2C[C@@H](C(=O)NC3CCCCC3)CC[C@H]2C)n1 (max 10 µM)	area over the GR curve	0.224 GR
CCc1cnn2c(NCc3ccc[n+]([O-])c3)cc(N3CCCC[C@H]3CCO)nc12 (max 1 µM)	area over the GR curve	0.261 GR

Return reported area over the GR curve values for all items listed beneath this line.
1. CC(=O)c1c(C)c2cnc(Nc3ccc(N4CCNCC4)cn3)nc2n(C2CCCC2)c1=O (max 3.162 µM)
2. CN1CC[C@H](c2c(O)cc(O)c3c(=O)cc(-c4ccccc4Cl)oc23)[C@H](O)C1 [Flavopiridol] (max 1 µM)
3. Cc1cc(C(C)Nc2ccccc2)c2nc(N3CCOCC3)cc(=O)n2c1 (stereo not given) [TGX221] (max 10 µM)
4. C=CC(=O)Nc1ccc(C(=O)Nc2[nH]nc3c2CN(C(=O)N[C@H](CN(C)C)c2ccccc2)C3(C)C)cc1 [YKL-5-124] (max 10 µM)
5. CN1CCN(C(=O)c2ccc3cc(CCNc4ncnc5ccc(C#N)cc45)ccc3c2)CC1 [senexin b] (max 10 µM)
6. CS(=O)(=O)N1CCN(Cc2cc3nc(-c4cccc5[nH]ncc45)nc(N4CCOCC4)c3s2)CC1 [Pictilisib/GDC0941] (max 10 µM)
7. Cc1nn(C)c(COc2ccc(N3CCN(S(=O)(=O)N(C)C)CC3)cc2)c1-c1cccc2c(CCCOc3cccc4ccccc34)c(C(=O)O)n(CCN3CCOCC3)c12 (max 10 µM)

[A]
0.0458 GR
0.308 GR
0.163 GR
0.518 GR
0.293 GR
0.458 GR
0.117 GR

Return reported area over the GR curve values for all items listed beneath this line.
1. CCOc1cc2ncc(C#N)c(Nc3ccc(OCc4ccccn4)c(Cl)c3)c2cc1NC(=O)/C=C/CN(C)C [Neratinib/HKI272] (max 3.162 µM)
2. CO[C@H]1C[C@@H]2CC[C@@H](C)[C@@](O)(O2)C(=O)C(=O)N2CCCC[C@H]2C(=O)O[C@H]([C@H](C)C[C@@H]2CC[C@@H](OCCO)[C@H](OC)C2)CC(=O)[C@H](C)/C=C(\C)[C@@H](O)[C@@H](OC)C(=O)[C@H](C)C[C@H](C)/C=C/C=C/C=C/1C [Everolimus] (max 10 µM)

[A]
0.255 GR
0.2 GR

Return reported area over the GR curve values for all items listed beneath this line.
1. Cc1nc(-c2cn3c(n2)-c2ccc(-c4cnn(C(C)(C)C(N)=O)c4)cc2OCC3)n(C(C)C)n1 [Taselisib/GDC0032] (max 10 µM)
2. COc1cccc2c1C(=O)c1c(O)c3c(c(O)c1C2=O)C[C@@](O)(C(=O)CO)C[C@@H]3O[C@H]1C[C@H](N)[C@H](O)[C@H](C)O1 [Doxorubicin] (max 3.162 µM)
3. CO[C@@H](C)Cn1c(=O)n(C)c2cnc3ccc(-c4cncc(C(C)(C)O)c4)cc3c21 (max 10 µM)
4. NC1(C(=O)N[C@@H](CCO)c2ccc(Cl)cc2)CCN(c2nc[nH]c3nccc2-3)CC1 [AZD5363] (max 10 µM)
5. CC(C)n1nc(-c2ccc3oc(N)nc3c2)c2c(N)ncnc21 [INK128/MLN0128] (max 3.162 µM)
6. CCc1cncnc1N1CCN(Cc2nc3ccc(C(F)(F)F)cc3[nH]2)CC1 (max 10 µM)
7. CNC(=O)c1cccc(-c2ccc3c(N4CCOC[C@@H]4C)nc(N4CCOC[C@@H]4C)nc3n2)c1 [AZD2014] (max 10 µM)

[A]
1: 0.879 GR; 2: 0.0881 GR; 3: 0.679 GR; 4: 0.267 GR; 5: 0.609 GR; 6: 0.144 GR; 7: 0.606 GR
